# maps each entry to its BMC10 any morphological effect or mortality
- Tested on: Danio rerio embryo
- PROCEDURE SUMMARY: BMC10 any morphological effect or mortality at 120 hpf; higher = less toxic
MEASURED PROPERTY: BMC10 any morphological effect or mortality

* O=C(O)/C(S)=C/c1ccc(I)cc1 | > 100 µM
* C[C@@]1(O)[C@H](O)[C@@H](CO)O[C@H]1n1cnc2c(N)ncnc21 | > 100 µM
* O=C(OC1OC2COC(=O)c3cc(O)c(O)c(O)c3-c3c(cc(O)c(O)c3O)C(=O)OC(C2O)C1O)c1cc(O)c(O)c(O)c1 (centres undefined) | > 100 µM
* O=C(Nc1cc(C(F)(F)F)ccc1N1CCCCC1)c1ccncc1 | 0.68 µM

###

- Tested on: Danio rerio embryo
- PROCEDURE SUMMARY: BMC10 any morphological effect or mortality at 120 hpf; higher = less toxic
# maps each entry to its BMC10 any morphological effect or mortality
MEASURED PROPERTY: BMC10 any morphological effect or mortality

* Cc1ccc(S(=O)(=O)OCC(=O)Nc2ccc(C(=O)O)c(O)c2)cc1 | > 100 µM
* C[n+]1cccc(C(=O)O)c1.[Cl-] | > 100 µM
* O=C(/C=C/c1ccccc1)NC(NC(=S)Nc1cccc2cccnc12)C(Cl)(Cl)Cl (stereo not drawn) | > 100 µM
* O=c1[nH]c(=O)n([C@H]2C[C@H](O)[C@@H](CO)O2)cc1CO [5-Hydroxymethyl-2'-deoxyuridine] | > 100 µM
* COc1cc(/C=C\C(=O)CC(=O)/C=C\c2ccc(O)c(OC)c2)ccc1O | 30.8 µM
* CCN(CC)Cc1ccc(C(=O)N(CCc2ccccc2OC)[C@@H]2CCNC2)cc1.Cl.Cl | > 100 µM
* COc1ccc2cc1Oc1ccc(cc1)C[C@H]1c3c(cc4c(c3Oc3cc5c(cc3OC)CCN(C)[C@@H]5C2)OCO4)CCN1C | 10.5 µM
* Cl.O[C@@H](c1cc(C(F)(F)F)nc2c(C(F)(F)F)cccc12)[C@H]1CCCCN1 | 8.89 µM

###

- Test system: Danio rerio embryo
- PROCEDURE SUMMARY: BMC10 any morphological effect or mortality at 120 hpf; higher = less toxic
MEASURED PROPERTY: BMC10 any morphological effect or mortality

* CC(C)c1cnn2c(NCc3ccccc3-n3cccn3)nc(OC3CCCNC3)nc12 (configuration not stated) | 15.3 µM
* C/C=C/C[C@@H](C)[C@@H](O)[C@H]1C(=O)N[C@@H]([C@@H](C)O)C(=O)N(C)CC(=O)N(C)[C@@H](CC(C)C)C(=O)N[C@@H](C(C)C)C(=O)N(C)[C@@H](CC(C)C)C(=O)N[C@@H](C)C(=O)N[C@H](C)C(=O)N(C)[C@@H](CC(C)C)C(=O)N(C)[C@@H](CC(C)C)C(=O)N(C)[C@@H](C(C)C)C(=O)N1C | > 100 µM
* CCCCCCCCCN1C[C@H](O)[C@@H](O)[C@H](O)[C@H]1CO | > 100 µM
* Nc1ccn([C@H]2CC[C@@H](CO)O2)c(=O)n1 | > 100 µM
* CC1(C)CC[C@]2(C(=O)O)CC[C@]3(C)C(=CC[C@@H]4[C@@]5(C)C[C@@H](O)[C@H](O)C(C)(C)C5CC[C@]43C)[C@H]2C1 (some centres not stated) | 13.3 µM
* OCC1=C[C@@H](O)[C@@H]2C=CO[C@@H](O[C@@H]3O[C@H](CO)[C@@H](O)[C@H](O)[C@H]3O)[C@H]12 | > 100 µM
* Cc1cccc(C)c1N(CC(=O)Nc1ccc(-c2ncon2)cc1)C(=O)C1CCS(=O)(=O)CC1 | > 100 µM

###

- System: Danio rerio embryo
- PROCEDURE SUMMARY: BMC10 any morphological effect or mortality at 120 hpf; higher = less toxic
# maps each entry to its BMC10 any morphological effect or mortality
MEASURED PROPERTY: BMC10 any morphological effect or mortality

• COc1cc(NC(=O)Nc2cccc(CNC(=O)O[C@H]3CCOC3)c2)ccc1-c1cnco1 = > 100 µM
• CCN(CC)Cc1cc(Nc2ccnc3cc(Cl)ccc23)ccc1O = 4.04 µM
• COC(=O)N[C@H](C(=O)N1CC2(CC2)C[C@H]1c1ncc(-c2ccc3c(c2)C(F)(F)c2cc(-c4ccc5nc([C@@H]6[C@H]7CC[C@H](C7)N6C(=O)[C@@H](NC(=O)OC)C(C)C)[nH]c5c4)ccc2-3)[nH]1)C(C)C = > 100 µM

###

- System: Danio rerio embryo
- PROCEDURE SUMMARY: BMC10 any morphological effect or mortality at 120 hpf; higher = less toxic
MEASURED PROPERTY: BMC10 any morphological effect or mortality

* COc1cc(NC(C)CCCN)c2ncccc2c1.O=P(O)(O)O.O=P(O)(O)O (stereo unspecified) | > 100 µM
* O=C1CCC[C@@H]2[C@H]3CCC[N+]4([O-])CCC[C@@H](CN12)[C@@H]34 (stereo partly specified) | > 100 µM
* COc1ccc2nc3cc(Cl)ccc3c(Nc3cc(CN4CCCC4)c(O)c(CN4CCCC4)c3)c2n1.O=P(O)(O)O.O=P(O)(O)O.O=P(O)(O)O.O=P(O)(O)O | 1.18 µM
* Nc1ccn(C[C@@H](CO)OCP(=O)(O)O)c(=O)n1 | > 100 µM
* O=CC1OC(=O)c2cc(O)c(O)c(O)c2-c2c(cc(O)c(O)c2O)C(=O)OC1C1OC(=O)c2cc(O)c(O)c(O)c2-c2c(O)c(O)c3oc(=O)c4c(c(O)c(O)c5oc(=O)c2c3c54)-c2c(cc(O)c(O)c2O)C(=O)OCC1O (stereo unspecified) | > 100 µM
* O=C(Nc1cccc(NC(=O)c2cccc(O)c2O)c1)c1cccc(O)c1O | 65.3 µM

###

- Tested on: Danio rerio embryo
- PROCEDURE SUMMARY: BMC10 any morphological effect or mortality at 120 hpf; higher = less toxic
# maps each entry to its BMC10 any morphological effect or mortality
MEASURED PROPERTY: BMC10 any morphological effect or mortality (µM)

* COc1ccc(C(=O)O[C@H]2[C@H](O[C@@H]3[C@@H](OC(C)=O)[C@H](O[C@H]4C[C@H]5[C@@H]6CC=C7C[C@@H](O)CC[C@]7(C)[C@H]6CC[C@]5(C)[C@@]4(O)[C@H](C)C(=O)CCC(C)C)OC[C@@H]3O)OC[C@@H](O)[C@@H]2O)cc1 | 0.03
* CC1(C)[C@@H](O)CC[C@@]2(C)[C@@]1([H])[C@@H](O)C[C@]3(C)[C@]2([H])C[C@@H](O)[C@@]4([H])[C@@]3(C)CC[C@]4([H])[C@@](C)(O)CC/C=C(C)/C [20(S)-Protopanaxatriol] | 16.2

###

# maps each entry to its BMC10 any morphological effect or mortality
- System: Danio rerio embryo
- PROCEDURE SUMMARY: BMC10 any morphological effect or mortality at 120 hpf; higher = less toxic
MEASURED PROPERTY: BMC10 any morphological effect or mortality

* CC(C)Nc1cccnc1N1CCN(C(=O)c2cc3cc(NS(C)(=O)=O)ccc3[nH]2)CC1.CS(=O)(=O)O | > 100 µM
* CCOC(=O)c1ccc(OCCC2CCN(c3ccc(C)nn3)CC2)cc1 | 2.02 µM
* CC(C)C[C@H](NC(=O)[C@@H](NC(=O)N[C@@H](Cc1ccccc1)C(=O)O)C1CCNC(=N)N1)C(=O)N[C@H](C=O)Cc1ccccc1 (stereo partly specified) | > 100 µM
* CC(C)c1nc(CN(C)C(=O)N[C@@H](CCN2CCOCC2)C(=O)N[C@H](CC[C@H](Cc2ccccc2)NC(=O)OCc2cncs2)Cc2ccccc2)cs1 [Cobicistat] | > 100 µM
* COC(=O)c1cc(O)c(O)c(O)c1 [Methyl gallate] | > 100 µM
* Cl.Clc1ccc(Cn2c(CN3CCCC3)nc3ccccc32)cc1 | 4.04 µM
* CCCCN1C[C@H](O)[C@@H](O)[C@H](O)[C@H]1CO.Cl | > 100 µM
* Cc1cc(CCCOc2c(C)cc(-c3noc(C(F)(F)F)n3)cc2C)on1 | 1.15 µM
* CC1(C)CC(NC(=O)C(=O)Nc2ccc(Cl)cc2)CC(C)(C)N1 | 45.7 µM
* CCOC(=O)C1=C[C@@H](OC(CC)CC)[C@H](NC(C)=O)[C@@H](N)C1.O=P(O)(O)O | > 100 µM
* OC[C@H]1OC(O)C[C@@H](O)[C@@H]1O (stereo partly specified) | > 100 µM
* C[C@H]1[C@H](C)CC[C@]2(C(=O)O)CC[C@]3(C)C(=CC[C@@H]4[C@@]5(C)CC[C@H](O)C(C)(C)[C@@H]5CC[C@]43C)[C@H]12 | 0.748 µM
* O=c1cc(-c2ccc(O)c(O)c2)oc2c([C@@H]3O[C@H](CO)[C@@H](O)[C@H](O)[C@H]3O)c(O)cc(O)c12 | > 100 µM
* C[C@H]1CC[C@@]2(O)C(C)(C)[C@@H]3CC[C@@]2(C)[C@H]1C3 | > 100 µM
* O=c1[nH]c(=O)n([C@H]2C[C@H](O)[C@@H](CO)O2)cc1C(F)(F)F | > 100 µM
* COc1ccc(CC(C)C(C)Cc2ccc(OC)c(OC)c2)cc1OC (stereo unspecified) | 3.12 µM

Just for reference, the supplement of paper PMC11821682 is where these values come from.
